Assay Protocol: Apparent permeability of the compound in human Caco2 cells at 10 uM measured up to 120 mins by LC-MS/MS analysis
Format: ADME, cell-based
Assay Setup: Caco-2
Measurement Kind: Papp at 2 h, 10 µM (×10⁻⁶ cm/s)
Hi! Could you send only the number? It should be in ×10⁻⁶ cm/s, unit omitted.

# return recorded Papp at 2 h, 10 µM for input `COc1ccc2c(c1)c(CN1CCN(C)CC1)cn2S(=O)(=O)c1ccccc1Br.CS(=O)(=O)O.O` 19.6

====

Assay Protocol: Half life in Wistar rat at 10 mg/kg, iv by LC-MS/MS analysis
Type: ADME, organism-based
Assay Setup: in vivo
Assignment: determine reported half-life for the given compounds.
Hi! Could you send only the number? It should be in h, unit omitted.

# return recorded half-life for input `CN1CCN(Cc2cn(S(=O)(=O)c3ccccc3)c3ccccc23)CC1.Cl.Cl` 0.89

# return recorded half-life for input `COc1cccc2c1c(CN1CCN(C)CC1)cn2S(=O)(=O)c1ccc(C(C)C)cc1.Cl.Cl` 2.12

# return recorded half-life for input `CC(C)c1ccc(S(=O)(=O)n2cc(CN3CCN(C)CC3)c3cc(F)ccc32)cc1.Cl.Cl` 1.93

# return recorded half-life for input `CN1CCN(Cc2cn(S(=O)(=O)c3ccc(F)cc3)c3ccccc23)CC1` 1.5
